Experiment: amyloid nucleation score (Sup35N fusion, yeast selection) (log enrichment); library NNK3; higher = more nucleation; inactive = no reads after selection;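 also: zero at mode of non-aggregating sequences after 7 days selection at 30°C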
value.kind: amyloid nucleation score
The answer should be written as a number, with no unit following it.

Below are worked cases with known answers.
[[record]]
substance = "KMSLGLRCYSAYKEPLVQGE"
endpoint_value = -0.055

[[record]]
substance = "VHVLVVWYFAFTCVCRVPFG"
endpoint_value = 0.228

[[record]]
substance = "LVMNNRYLYSRFLLLV"
endpoint_value = -0.619

[[record]]
substance = "LIVNSRSVFNITHFLNINYQ"
endpoint_value = 2.1

[[record]]
substance = "WWKSLLTRWRCLPPRK"
endpoint_value = -0.307


Challenge: State its amyloid nucleation score: AFCLQYVCYAKLMGNVNNTC
Response given: 1.75

Challenge: State its amyloid nucleation score: NFGVMLGVNTLSMSSRVVLG
Response given: 0.6

====

Assay: amyloid nucleation score (Sup35N fusion, yeast selection) (log enrichment); library NNK3; higher = more nucleation; inactive = no reads after selection
value.kind: amyloid nucleation score

Below are worked cases with known answers.
[[record]]
biopolymer_sequence = "GICHTFDAGTVFFLFGSWFI"
value_kind = "amyloid nucleation score"
endpoint_value = "inactive"

[[record]]
biopolymer_sequence = "VVVKKSVVDAWSAYYFRLFV"
value_kind = "amyloid nucleation score"
endpoint_value = "inactive"

[[record]]
biopolymer_sequence = "VIWAVPAH"
value_kind = "amyloid nucleation score"
endpoint_value = "inactive"

[[record]]
biopolymer_sequence = "AASIFGNSV"
value_kind = "amyloid nucleation score"
endpoint_value = "inactive"

[[record]]
biopolymer_sequence = "FSVVLYKRWWRTRMATGLLK"
value_kind = "amyloid nucleation score"
endpoint_value = "inactive"

[[record]]
biopolymer_sequence = "FMYKLSLLVCDKWLIVILPF"
value_kind = "amyloid nucleation score"
endpoint_value = "inactive"


Challenge: State its amyloid nucleation score: FWFSTELVDDGAGQT
Response given: inactive

Challenge: State its amyloid nucleation score: ILKVLFKF
Response given: 1.13

Challenge: State its amyloid nucleation score: MVVMRKSVETTYYWLILAIF
Response given: inactive

Challenge: State its amyloid nucleation score: RSMQFGVIYAYYHRMAG
Response given: inactive

Challenge: State its amyloid nucleation score: LRWYPVDMI
Response given: inactive

====

// reported amyloid nucleation score per item
Assay: amyloid nucleation score (Sup35N fusion, yeast selection) (log enrichment); library NNK2; higher = more nucleation; inactive = no reads after selection
The answer should be written as a number, with no unit following it.

Below are worked cases with known answers.
[[record]]
biopolymer_sequence = "RSYLIKSLVSSLSARWIMMS"
endpoint_value = -0.03

[[record]]
biopolymer_sequence = "RFAMFMVVRWGWDHKYEFLR"
endpoint_value = 0.353

[[record]]
biopolymer_sequence = "LLDACHLGNWTAGNGYYDRV"
endpoint_value = -0.531

[[record]]
biopolymer_sequence = "MAFVDISSANFRKITRDLLP"
endpoint_value = 0.82


Challenge: State its amyloid nucleation score: INLRMCGFYTSFDLNWRRKW
Response given: 4.98

Challenge: State its amyloid nucleation score: LVFVAGRILMMIFFVSGLAI
Response given: 2.59

Challenge: State its amyloid nucleation score: MVGNWDSV
Response given: -0.011

====

// reported amyloid nucleation score per item
Experiment: amyloid nucleation score (Sup35N fusion, yeast selection) (log enrichment); library NNK2; higher = more nucleation; inactive = no reads after selection
The answer should be written as a number, with no unit following it.

[[record]]
substance = "LLINLVPFWLILRHDYLIKF"
value_kind = "amyloid nucleation score"
endpoint_value = 0.959

[[record]]
substance = "DYFFPWENSGCIRRSLTVG"
value_kind = "amyloid nucleation score"
endpoint_value = -1.35


Next, consider the following substance.
Challenge: State its amyloid nucleation score: ISVPYGVKGSSACMNGLGVT
Response given: 0.318

====

Assay: amyloid nucleation score (Sup35N fusion, yeast selection) (log enrichment); library NNK3; higher = more nucleation; inactive = no reads after selection
value.kind: amyloid nucleation score

[[record]]
substance = "ETECVFSDYHSKVNICGGSL"
value_kind = "amyloid nucleation score"
endpoint_value = "inactive"

[[record]]
substance = "IGCCFSVLKNLLFSFDVKQF"
value_kind = "amyloid nucleation score"
endpoint_value = "inactive"

[[record]]
substance = "GDMQMW"
value_kind = "amyloid nucleation score"
endpoint_value = "inactive"

[[record]]
substance = "PGCTTN"
value_kind = "amyloid nucleation score"
endpoint_value = "inactive"

[[record]]
substance = "FHPFFIGVGSFLGSLHEFQS"
value_kind = "amyloid nucleation score"
endpoint_value = "inactive"

[[record]]
substance = "SRGVRIDKMVWNVIGFCHGW"
value_kind = "amyloid nucleation score"
endpoint_value = 2.8


Next, consider the following substance.
Challenge: State its amyloid nucleation score: AFTRQIIWRDGGERPPWMRV
Response given: inactive

====

Assay: amyloid nucleation score (Sup35N fusion, yeast selection) (log enrichment); library NNK2; higher = more nucleation; inactive = no reads after selection
value.kind: amyloid nucleation score

[[record]]
substance = "MGNLCCVPRYYMHQVEYPRF"
value_kind = "amyloid nucleation score"
endpoint_value = "inactive"

[[record]]
substance = "IEGTVRYYPVSNFT"
value_kind = "amyloid nucleation score"
endpoint_value = "inactive"

[[record]]
substance = "RDSFRDTAYHELVYFTKNFR"
value_kind = "amyloid nucleation score"
endpoint_value = "inactive"

[[record]]
substance = "RSCYVYRN"
value_kind = "amyloid nucleation score"
endpoint_value = "inactive"

[[record]]
substance = "VSYDSNAILTFVNSYSRRRL"
value_kind = "amyloid nucleation score"
endpoint_value = 1.48


Next, consider the following substance.
Challenge: State its amyloid nucleation score: FDWISVRGTGWFCLRWWLYV
Response given: inactive

====

// reported amyloid nucleation score per item
Assay: amyloid nucleation score (Sup35N fusion, yeast selection) (log enrichment); library NNK1; higher = more nucleation; inactive = no reads after selection
The answer should be written as a number, with no unit following it.

Below are worked cases with known answers.
[[record]]
biopolymer_sequence = "SCMMYQMCNWHERAPSTVLL"
endpoint_value = 0.908

[[record]]
biopolymer_sequence = "NWHVGIIGWRCMGHTQKYVN"
endpoint_value = 0.038

[[record]]
biopolymer_sequence = "YIFAAWGGNKTHLCGQIKY"
endpoint_value = 0.862

[[record]]
biopolymer_sequence = "ILFCYLYFMLNNFT"
endpoint_value = 1.07

[[record]]
biopolymer_sequence = "WMFTGVRLVSK"
endpoint_value = 0.3


Challenge: State its amyloid nucleation score: KMIDICPFIHWSQSSTPSRA
Response given: 0.018

Challenge: State its amyloid nucleation score: RYSSLRWTISFDNLVVSFRP
Response given: 0.724

====

Assay: amyloid nucleation score (Sup35N fusion, yeast selection) (log enrichment); library NNK1; higher = more nucleation; inactive = no reads after selection
value.kind: amyloid nucleation score
The answer should be written as a number, with no unit following it.

[[record]]
substance = "CKVQLSQDRAVECGVNHGVY"
endpoint_value = -0.01

[[record]]
substance = "GYGIMANS"
endpoint_value = -0.179

[[record]]
substance = "NSYVLVNCALLRLGRINVFY"
endpoint_value = 7.56

[[record]]
substance = "SLLTCILGFPSCPGASMMFQ"
endpoint_value = 7.06

[[record]]
substance = "YWVWYDVYGSWLGSWYYKRG"
endpoint_value = 0.278


Next, consider the following substance.
Challenge: State its amyloid nucleation score: FFWRHLESGMGFHKACSHGG
Response given: 0.005

====

Experiment: amyloid nucleation score (Sup35N fusion, yeast selection) (log enrichment); library NNK2; higher = more nucleation; inactive = no reads after selection
value.kind: amyloid nucleation score
The answer should be written as a number, with no unit following it.

Below are worked cases with known answers.
[[record]]
biopolymer_sequence = "CCWAVWDLRGFTRGWRLRRG"
value_kind = "amyloid nucleation score"
endpoint_value = 0.509

[[record]]
biopolymer_sequence = "HGLEVVQMASSLELQARKKA"
value_kind = "amyloid nucleation score"
endpoint_value = 0.049

[[record]]
biopolymer_sequence = "YGAWCERLKRFSRLVWSDGR"
value_kind = "amyloid nucleation score"
endpoint_value = 0.312

[[record]]
biopolymer_sequence = "NLYSLPQEDRSLNDEKGG"
value_kind = "amyloid nucleation score"
endpoint_value = 0.121

[[record]]
biopolymer_sequence = "ALPTWWVDKNLLSCLYSELS"
value_kind = "amyloid nucleation score"
endpoint_value = -0.104

[[record]]
biopolymer_sequence = "LVQCRNVSMNTILSIGGGKS"
value_kind = "amyloid nucleation score"
endpoint_value = 6.17


Next, consider the following sequence.
Challenge: State its amyloid nucleation score: YSCFEMSCVGLGDVMIFIVL
Response given: 8.12

====

Test: amyloid nucleation score (Sup35N fusion, yeast selection) (log enrichment); library NNK2; higher = more nucleation; inactive = no reads after selection
value.kind: amyloid nucleation score

[[record]]
substance = "DYMTGV"
endpoint_value = "inactive"

[[record]]
substance = "RCGSDLCDTFWVTLRGYGEV"
endpoint_value = 0.595

[[record]]
substance = "YRCFGERIFLHAHRE"
endpoint_value = "inactive"

